- TESTED ON: Wild-type human KRAS protein, N-terminal His6-tag fusion (human), P01116
- ASSAY NOTES: fluorescence polarization
- MEASUREMENT PARAMETERS: modification not given
Bridges are numbered along the chain shown (N, C = ends). Where no end group is shown, it is not given here. [ ]: non-standard residue; d: D form. S5 = C=CCCC[C@](C)(N)C(=O)O
QUANTITY NAME: Kd (nM)
Number in nM, nothing else.

For the binder RRF[S5]GIY[S5]TNILKTEEGN (staple 4-8) [SAH-SOS A2] , give its measured Kd value.
21
